test system: HDQ-P1; experiment: normalised viability (% of control), CellTiter-Blue; higher = more viable cells (about 100 = DMSO control); conditions: incubation time: 72 h
ENDPOINT LABEL: normalised viability (%)
Your answer should be a plain number; it is taken to be in %.

Lab note: c1cc(CN2CCCNCCNCCCNCC2)ccc1CN1CCCNCCNCCCNCC1 [Plerixafor] (2500 nM) gave normalised viability of 125

Kindly note the recorded normalised viability for O=S(=O)(c1cccc2cnccc12)N1CCCNCC1 [Fasudil] (10000 nM) , which is 180

Summary for this compound, CC[C@@]1(O)C(=O)OCc2c1cc1n(c2=O)Cc2cc3c(CN(C)C)c(O)ccc3nc2-1 [Topotecan] (1000 nM) : normalised viability is 77.7

Recorded result, C[C@]12C=CC(=O)C=C1CC[C@@H]1[C@@H]2[C@@H](O)C[C@@]2(C)[C@H]1CC[C@]2(O)C(=O)CO [Prednisolone] (10000 nM) , normalised viability: 120

Now, please, on to the next compound.
Per the record, Cc1cccc(-c2nn3c(c2-c2ccnc4ccc(C(N)=O)cc24)CCC3)n1 (1000 nM) has normalised viability of 133
